- tested_target: T1, His-tagged human TSLP antigen (huTSLP-his) (human)
- T1 construct: Secreted from HEK293E and purified on nickel; whole entry named; also called Human TSLP-his
- protocol_summary: ELISA, coated huTSLP-his;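 further: binding of antibodies to plate-bound TSLP read as absorbance at 450 nm after TMB colour development, EC50 derived from binding curves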
parameter_measured: EC50 (nM)
Reply numerically in nM, unit not repeated.

For orientation, consider the following solved cases.
Enquiry: Read the entry hu179-24 (antibody, human IgG1, kappa, V domains shown, IgG1-YTE, kappa) VH: EVQLVQSGAEVKKPGSSVKVSCKASGGTFSNYLIEWVRQAPGQGLEWMGVIDPGNGDTNYNENFKGRVTITADKSTSTAYMELSSLRSEDTAVYYCAREDNTGTAFDYWGQGTTVTVSS VL: DIVMTQSPDSLAVSLGERATINCKASQSVSSDVTWYQQKPGQSPKLLIYYVSNYYTGVPDRFSGSGSGTDFTLTISSLQAEDVAVYYCQQHHRFPLTFGQGTKLEIKR and write its reported EC50.
Return: 0.636

Enquiry: Dear colleague, please send me the reported EC50 for hu119-17 (antibody, human IgG1, kappa, V domains shown, IgG1-YTE, kappa) VH: EAQLVQSGAEVKKPGSSVKVSCKASGFTFSTYNMHWVRQAPGQGLEWIGAIYPGNGETSYNQKFKDRATLTVDKSTRTAYMELSSLRSEDTAVYYCAREDDYGEGYFDVWGQGTTVTVSS VL: EIVLTQSPATLSLSPGERATLSCRASESVDNSGLSFMHWYQQKPGQAPRLLIYRASNLGSGIPARFSGSGSGTDFTLTISSLEPEDFAVYYCQQINTDPLTFGQGTKLEIKR when you can.
Return: 0.351

Okay, now this binder:
Enquiry: Assign EC50 to the following record: hu119-15 (antibody, human IgG1, kappa, V domains shown, IgG1-YTE, kappa) VH: EAQLVQSGAEVKKPGSSVKVSCKASGFTFSTYNMHWVRQAPGQGLEWIGAIYPGNGETSYNQKFKDRATLTVDKSTSTAYMELSSLRSEDTAVYYCAREDDYGEGYFDVWGQGTTVTVSS VL: EIVLTQSPATLSLSPGERATLSCRASESVDNSGLSFMHWYQQKPGQAPRLLIYRASNLGSGIPARFSGSGSGTDFTLTISSLEPEDFAVYYCQQINTDPLTFGQGTKLEIKR
Return: 0.35

FYI, the data here is from patent US20240016931A1.
